# measured target: Factor X, P00742
# Sequence (P00742 whole entry, looked up): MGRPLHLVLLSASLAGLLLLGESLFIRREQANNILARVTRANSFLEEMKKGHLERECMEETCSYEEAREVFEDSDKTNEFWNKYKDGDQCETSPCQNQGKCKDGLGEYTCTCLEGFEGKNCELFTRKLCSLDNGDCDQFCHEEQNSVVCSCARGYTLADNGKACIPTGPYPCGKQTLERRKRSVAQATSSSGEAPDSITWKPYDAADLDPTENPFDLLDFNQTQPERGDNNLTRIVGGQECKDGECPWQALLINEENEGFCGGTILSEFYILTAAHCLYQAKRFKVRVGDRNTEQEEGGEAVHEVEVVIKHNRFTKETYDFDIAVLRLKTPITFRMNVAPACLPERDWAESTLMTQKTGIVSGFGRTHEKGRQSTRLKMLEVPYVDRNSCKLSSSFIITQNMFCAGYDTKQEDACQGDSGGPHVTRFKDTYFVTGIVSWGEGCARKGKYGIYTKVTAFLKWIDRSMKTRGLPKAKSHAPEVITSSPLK
Give KM for every item shown.
Quick note: give the figure in µM, leave out the unit.

# query: KM of entry FIXa-Y155F/K247N/N249S/R318Y/R338E/T343R (protein) chain 1: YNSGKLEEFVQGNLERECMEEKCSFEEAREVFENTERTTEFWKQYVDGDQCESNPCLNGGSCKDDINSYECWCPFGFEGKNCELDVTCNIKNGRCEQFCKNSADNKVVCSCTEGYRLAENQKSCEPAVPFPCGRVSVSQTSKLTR chain 2: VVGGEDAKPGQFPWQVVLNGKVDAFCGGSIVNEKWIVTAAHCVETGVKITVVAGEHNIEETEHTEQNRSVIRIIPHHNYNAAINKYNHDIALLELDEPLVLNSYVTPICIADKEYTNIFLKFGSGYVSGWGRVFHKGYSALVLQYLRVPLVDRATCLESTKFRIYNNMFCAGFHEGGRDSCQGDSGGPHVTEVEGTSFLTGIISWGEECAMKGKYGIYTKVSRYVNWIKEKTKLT
0.0276

State the recorded KM for this entry: FIXa-A103N/N105S/K247N/N249S/R318Y/R338E/R403E/E410N (protein) chain 1: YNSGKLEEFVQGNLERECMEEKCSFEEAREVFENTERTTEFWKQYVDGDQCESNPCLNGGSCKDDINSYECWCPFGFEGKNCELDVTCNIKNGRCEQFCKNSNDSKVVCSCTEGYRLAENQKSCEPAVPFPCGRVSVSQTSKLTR chain 2: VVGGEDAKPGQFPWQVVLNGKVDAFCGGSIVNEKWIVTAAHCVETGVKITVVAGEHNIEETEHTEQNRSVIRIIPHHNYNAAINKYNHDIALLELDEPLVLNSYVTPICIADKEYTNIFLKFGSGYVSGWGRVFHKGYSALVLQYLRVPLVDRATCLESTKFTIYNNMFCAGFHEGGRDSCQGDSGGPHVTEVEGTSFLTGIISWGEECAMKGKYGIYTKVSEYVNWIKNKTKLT
0.0397

What KM value was documented for this protein, FIXa-R318Y/R403E/E410N (protein) chain 1: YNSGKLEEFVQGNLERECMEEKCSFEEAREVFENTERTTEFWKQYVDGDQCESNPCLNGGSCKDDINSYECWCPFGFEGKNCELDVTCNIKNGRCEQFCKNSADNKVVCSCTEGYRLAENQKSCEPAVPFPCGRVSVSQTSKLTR chain 2: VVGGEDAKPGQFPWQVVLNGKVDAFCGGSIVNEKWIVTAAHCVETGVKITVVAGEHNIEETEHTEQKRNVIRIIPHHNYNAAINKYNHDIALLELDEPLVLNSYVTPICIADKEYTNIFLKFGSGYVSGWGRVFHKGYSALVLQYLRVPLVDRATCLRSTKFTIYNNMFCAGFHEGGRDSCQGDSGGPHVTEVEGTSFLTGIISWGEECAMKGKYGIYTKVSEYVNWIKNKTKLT ?
0.0883

What does the data say about its KM? Entry: FIXa-A103N/N105S/Y155F/R318Y/R338E/R403E/E410N (protein) chain 1: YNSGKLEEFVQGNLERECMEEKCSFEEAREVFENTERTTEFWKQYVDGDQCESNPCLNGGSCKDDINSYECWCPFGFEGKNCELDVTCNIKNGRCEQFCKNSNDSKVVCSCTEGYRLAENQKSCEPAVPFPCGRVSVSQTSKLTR chain 2: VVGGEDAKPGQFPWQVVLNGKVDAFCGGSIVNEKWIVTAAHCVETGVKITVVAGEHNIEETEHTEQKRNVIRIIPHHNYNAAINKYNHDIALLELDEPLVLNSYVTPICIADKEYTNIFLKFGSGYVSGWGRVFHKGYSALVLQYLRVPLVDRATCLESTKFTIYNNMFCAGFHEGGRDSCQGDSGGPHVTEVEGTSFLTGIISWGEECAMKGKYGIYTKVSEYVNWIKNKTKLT
0.0507
